species on record: Rattus norvegicus; assay: Metabolic clearance from the body in rat; assay type: ADME, organism-based; details: in vivo
Threshold 0.2 mL/min: ClM strictly smaller gives fulfilled, otherwise not fulfilled.

compound structure | group label
Nc1ccc(S(=O)(=O)Nc2ncc(Br)cc2Br)cc1 | fulfilled
Cc1cc(C)nc(NS(=O)(=O)c2ccc(N)cc2)c1 | not fulfilled
CN(C)c1ccc(NS(=O)(=O)c2ccc(N)cc2)nc1 | fulfilled
Nc1ccc(S(=O)(=O)Nc2ccccn2)cc1 | not fulfilled
Nc1ccc(S(=O)(=O)Nc2ccc(Br)cn2)cc1 | fulfilled
Nc1ccc(S(=O)(=O)Nc2ncc(Cl)cc2Cl)cc1 | fulfilled

Next:
INPUT: In the record for Nc1ccc(S(=O)(=O)Nc2ccc(Cl)cn2)cc1 , is ClM less than 0.2 mL/min?
OUTPUT: fulfilled

---

experiment: Acid dissociation constant; type: ADME
Attribute: pKa
Please respond with just the number, no unit label.

Before answering, review these 6 worked examples.
compound structure | pKa
N#Cc1cccnc1NS(=O)(=O)c1ccc(N)cc1 | 5.25
Cc1cnc(NS(=O)(=O)c2ccc(N)cc2)c(C#N)c1 | 5.35
Cc1ccc(NS(=O)(=O)c2ccc(N)cc2)nc1 | 8.95
COc1cccnc1NS(=O)(=O)c1ccc(N)cc1 | 8.07
CN(C)c1ccc(NS(=O)(=O)c2ccc(N)cc2)nc1 | 9.21
Cc1cc(C)nc(NS(=O)(=O)c2ccc(N)cc2)c1 | 9.54

Now for the compound whose pKa we want.
INPUT: Quote pKa reported for Cc1cc(Br)cnc1NS(=O)(=O)c1ccc(N)cc1 please.
OUTPUT: 7.19

---

Attribute: clearance
experiment: Total clearance from the body in rat; assay type: ADME, organism-based; conditions: in vivo, read-out: ClT
Your answer should be a plain number; it is taken to be in mL/min.

Before answering, review these 5 worked examples.
compound structure | property | reported value
Cc1ccnc(NS(=O)(=O)c2ccc(N)cc2)c1 | clearance | 1.38
Nc1ccc(S(=O)(=O)Nc2ccc(Cl)cn2)cc1 | clearance | 0.099
CN(C)c1ccc(NS(=O)(=O)c2ccc(N)cc2)nc1 | clearance | 0.62
Nc1ccc(S(=O)(=O)Nc2ccc(Br)cn2)cc1 | clearance | 0.116
Cc1cnc(NS(=O)(=O)c2ccc(N)cc2)c(C#N)c1 | clearance | 0.47

Now for the compound whose clearance we want.
INPUT: Quote clearance reported for Cc1ccc(NS(=O)(=O)c2ccc(N)cc2)nc1 please.
OUTPUT: 1.15

---

species on record: Rattus norvegicus; assay: Apparent volume of distribution was determined in rat; assay type: ADME, organism-based; details: in vivo
Attribute: Vc
Your answer should be a plain number; it is taken to be in mL.

Before answering, review these 3 worked examples.
compound structure | Vc, mL
CCOc1cccnc1NS(=O)(=O)c1ccc(N)cc1 | 98.3
Nc1ccc(S(=O)(=O)Nc2ccc([N+](=O)[O-])cn2)cc1 | 192.8
N#Cc1cccnc1NS(=O)(=O)c1ccc(N)cc1 | 96.7

INPUT: Quote Vc reported for Cc1ccnc(NS(=O)(=O)c2ccc(N)cc2)c1 please.
OUTPUT: 142.8

INPUT: Quote Vc reported for CN(C)c1ccc(NS(=O)(=O)c2ccc(N)cc2)nc1 please.
OUTPUT: 111.2

INPUT: Quote Vc reported for COc1cccnc1NS(=O)(=O)c1ccc(N)cc1 please.
OUTPUT: 100.3

---

species: Rattus norvegicus; assay: Affinity for protein binding expressed as association constant in fresh rat serum; assay type: ADME, organism-based
property: K ass

Before answering, review these 8 worked examples.
compound structure | K ass
Nc1ccc(S(=O)(=O)Nc2ncc(Cl)cc2Cl)cc1 | 12706 l M-1
Cc1ccc(NS(=O)(=O)c2ccc(N)cc2)nc1 | 9183 l M-1
CCOc1cccnc1NS(=O)(=O)c1ccc(N)cc1 | 4169 l M-1
Nc1ccc(S(=O)(=O)Nc2ncc(Br)cc2Br)cc1 | 13800 l M-1
Cc1cc(C)nc(NS(=O)(=O)c2ccc(N)cc2)c1 | 5495 l M-1
Cc1cccc(NS(=O)(=O)c2ccc(N)cc2)n1 | 5129 l M-1
CN(C)c1ccc(NS(=O)(=O)c2ccc(N)cc2)nc1 | 8511 l M-1
Nc1ccc(S(=O)(=O)Nc2ccc(Cl)cn2)cc1 | 25703 l M-1

INPUT: Quote K ass reported for Cc1cc(Br)cnc1NS(=O)(=O)c1ccc(N)cc1 please.
OUTPUT: 5888 l M-1

---

experiment: Total clearance from the body in rat; type: ADME, organism-based; conditions: in vivo, read-out: ClT
property: log10(clearance) (log10 of the value in mL/min)
The base-10 logarithm of clearance, taken with clearance in mL/min, is what appears here.

Before answering, review these 5 worked examples.
compound structure | log10(clearance)
N#Cc1cccnc1NS(=O)(=O)c1ccc(N)cc1 | -0.11
COc1cccnc1NS(=O)(=O)c1ccc(N)cc1 | -0.04
Cc1cc(Br)cnc1NS(=O)(=O)c1ccc(N)cc1 | -0.70
Cc1cc(Cl)cnc1NS(=O)(=O)c1ccc(N)cc1 | -0.71
Nc1ccc(S(=O)(=O)Nc2ncccc2Cl)cc1 | -0.70

INPUT: Quote log10(clearance) reported for Nc1ccc(S(=O)(=O)Nc2ncc(Br)cc2Br)cc1 please.
OUTPUT: -1.32

INPUT: Quote log10(clearance) reported for CCOc1cccnc1NS(=O)(=O)c1ccc(N)cc1 please.
OUTPUT: -0.09

---

species on record: Rattus norvegicus; assay: Affinity for protein binding expressed as association constant in fresh rat serum; assay type: ADME, organism-based
Attribute: K ass

compound structure | reported value
Nc1ccc(S(=O)(=O)Nc2ccc([N+](=O)[O-])cn2)cc1 | 20417 l M-1

Now for the compound whose K ass we want.
INPUT: Quote K ass reported for Cc1cccnc1NS(=O)(=O)c1ccc(N)cc1 please.
OUTPUT: 1622 l M-1

---

Attribute: K ass
species on record: Rattus norvegicus; assay: Affinity for protein binding expressed as association constant in fresh rat serum; assay type: ADME, organism-based

compound | K ass
Nc1ccc(S(=O)(=O)Nc2ccccn2)cc1 [SULFAPYRIDINE] | 4592 l M-1
Cc1ccnc(NS(=O)(=O)c2ccc(N)cc2)c1 | 6606 l M-1
Cc1cnc(NS(=O)(=O)c2ccc(N)cc2)c(C#N)c1 | 10965 l M-1

Now for the compound whose K ass we want.
INPUT: Quote K ass reported for N#Cc1cccnc1NS(=O)(=O)c1ccc(N)cc1 please.
OUTPUT: 1820 l M-1
